# system-name: IRAK4 (Homo sapiens, UniProt Q9NWZ3)
# Construct: endogenous in cells; host or cells: THP-1 cells
# procedure-summary: ALE THP1 HTRF (Advanced Lipoxidation End Product THP1 Homogeneous Time Resolved Fluorescence)
# Assay type: cell-based
# measurement-setup: THP1 cells
quantity-measured: ALE THP1 HTRF YMIN (%)
The answer is to be given in %; state only the numeric part.

Below: 5 compounds and their reported ALE THP1 HTRF YMIN.
compound	display-unit	ALE THP1 HTRF YMIN
N#Cc1cnc2c(cnn2-c2cc(NC3CCCC3)c(C(=O)NC3CCC(C(=O)N4CCN(c5ccc6c(c5)C(=O)N(C5CCC(=O)NC5=O)C6)CC4)CC3)cn2)c1 (centres unmarked)	%	34.8
C[C@H](C#N)Nc1cc(-n2ncc3cc(C#N)c(N)nc32)ncc1C(=O)N[C@H]1CC[C@H](CCN2CCN(c3ccc(C4CCC(=O)NC4=O)cc3)C(=O)C2)CC1 (some centres unmarked)	%	6.7
N#Cc1cnc2c(cnn2-c2cc(NC3CCCC3)c(C(=O)NC3CCC(O)(CN4CCN(c5ccc6c(c5)C(=O)N(C5CCC(=O)NC5=O)C6=O)CC4)CC3)cn2)c1 (centres unmarked)	%	44.1
N#Cc1cnc2c(cnn2-c2cc(N[C@H]3CCC[C@H]3O)c(C(=O)NC3CCC(CCN4CCN(c5ccc(C6CCC(=O)NC6=O)cc5)CC4)CC3)cn2)c1 (some centres unmarked)	%	11.2
C[C@H](C#N)Nc1cc(-n2ncc3cc(C#N)cnc32)ncc1C(=O)N[C@H]1CC[C@H](CCN2CCN(c3ccc(C4CCC(=O)NC4=O)cc3)C3(CCC3)C2)CC1 (some centres unmarked)	%	9.4

Continue with the compound presented below.
Exercise: # return ALE THP1 HTRF YMIN for C[C@H](C#N)Nc1cc(-c2ccc3cc(C#N)cnn23)ncc1C(=O)N[C@H]1CC[C@H](CCN2CCN(c3ccc(C4CCC(=O)NC4=O)cc3)CC2)CC1 (some centres unmarked) , test system: IRAK4 (Homo sapiens, UniProt Q9NWZ3)
Key: 5.9

###

# procedure-summary: Pharmacokinetic studies in mice (plasma PK, IV and PO)
# Type: in vivo
# measurement-setup: mouse, 0.5 mg/kg; female C57B16 mice, plasma, IV 0.50 mg/kg
quantity-measured: half-life (h)
The answer is to be given in h; state only the numeric part.

Exercise: Supply half-life value. Item: CC[C@@H]1CN(CC[C@H]2CC[C@H](c3cn(-c4cnc(-n5ncc6cc(C#N)cnc65)cc4N[C@H](C)C#N)nn3)CC2)CCN1c1ccc(N2CCC(=O)NC2=O)cn1 [P-394]
Key: 1.7

###

# system-name: IRAK4 (Homo sapiens)
# Construct: endogenous in cells; host or cells: THP-1 cells
# Sequence (Q9NWZ3 1-460): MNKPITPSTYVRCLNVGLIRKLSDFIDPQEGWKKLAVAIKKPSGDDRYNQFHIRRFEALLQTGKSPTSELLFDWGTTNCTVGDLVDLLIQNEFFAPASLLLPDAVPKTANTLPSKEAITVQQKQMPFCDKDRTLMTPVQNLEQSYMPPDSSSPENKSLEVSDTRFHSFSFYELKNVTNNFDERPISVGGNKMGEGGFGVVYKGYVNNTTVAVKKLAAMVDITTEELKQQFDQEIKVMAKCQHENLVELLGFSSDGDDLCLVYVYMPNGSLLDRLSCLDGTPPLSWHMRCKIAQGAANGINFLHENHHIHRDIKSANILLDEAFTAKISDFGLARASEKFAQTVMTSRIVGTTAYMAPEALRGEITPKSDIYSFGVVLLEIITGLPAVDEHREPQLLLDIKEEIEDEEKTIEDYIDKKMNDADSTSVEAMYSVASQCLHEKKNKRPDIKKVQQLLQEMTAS
# procedure-summary: LVL THP1 HTRF (THP1 Homogeneous Time Resolved Fluorescence)
# Type: cell-based
# measurement-setup: THP1 cells, 18 h incubation with compound
Reported LVL THP1 HTRF YMIN values for a set of compounds
The answer is to be given in %; state only the numeric part.

compound	LVL THP1 HTRF YMIN, %
C[C@H](C#N)Nc1cc(-n2ncc3cc(C#N)cnc32)ncc1-n1cc([C@H]2CC[C@H](CCN3CC[C@H](Oc4ccc(N5CCC(=O)NC5=O)cc4)C3)CC2)nn1	18.9
C[C@H](C#N)Nc1cc(-n2ncc3cc(C#N)cnc32)ncc1C(=O)N[C@H]1CC[C@H](CCN2C3COCC2CN(c2ccc(C4CCC(=O)NC4=O)cc2)C3)CC1 (some centres unmarked)	25.3
CC1CN(CC[C@H]2CC[C@H](NC(=O)c3cnc(-n4ncc5cc(C#N)cnc54)cc3N[C@H](C)C#N)CC2)CCC1c1ccc([C@@]2(C)CCC(=O)NC2=O)cc1 (some centres unmarked)	10.2

Continue with the compound presented below.
Exercise: Supply LVL THP1 HTRF YMIN value. Item: C[C@H](C#N)Nc1cc(-n2ncc3cc(C#N)c(N)nc32)ncc1-n1cc([C@H]2CC[C@H](CCN3CCN(c4ccc([C@@]5(C)CCC(=O)NC5=O)cn4)CC3)CC2)nn1 (single isomer, unassigned)
Key: 93.2

Origin of values: patent US20240109881A1
